Assignment: determine reported growth inhibition for the given molecules.
assay.info: NCI Yeast Anticancer Drug Screen. Data for the sgs1 strain (AID 173);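 note: 0% = growth of vehicle-only control cultures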
test.context: S. cerevisiae sgs1 mutant, at 1.2 µM, stronger effect = higher value
This is part of a sample that, as a whole, favours compounds with a hit. Of some 79,000 tested, about 15% had one in any assay.
One number for each entry, in %.

Illustrative cases are given below, each with its answer.
Problem: Fill blank: measured growth inhibition of the molecule COc1cc2c(cc1OC)[C@@H](Nc1ccc(C#N)cc1)C1COC(=O)[C@@H]1C2c1cc(OC)c(O)c(OC)c1 (some centres not stated) is ____.
Solution: -20

Problem: Fill blank: measured growth inhibition of the molecule Fc1cc(F)c(F)c(S)c1F is ____.
Solution: -34

Problem: Fill blank: measured growth inhibition of the molecule O=C1c2ccccc2-c2ccc(N=Cc3ccccc3)cc21 is ____.
Solution: -13

Provide the reported growth inhibition of each entry below, same order.
1. O=C1CC(C(O)(C(F)(F)F)C(F)(F)Cl)CCC1C(O)(C(F)(F)F)C(F)(F)Cl (configuration not stated)
2. O=C1c2ccccc2C(=O)c2sc(Nc3ccccc3Cl)nc21
3. Nc1ccc2cc(Br)ccc2c1Br

Solution:
[61, -6, -24]

Measured values drawn from PubChem BioAssay (NCI) for this set.
